Measured TGI of individual entries
- Tested on: U251 CNS
- Procedure text: NCI tumour cell line growth inhibition, 48 h
Give just the numeric value; µM need not be written.

Here is how some molecules turned out for TGI.
1) C=C1N(C)c2ccc(Cl)cc2C1(C)C = 57.2
2) C=C(CN1CCN(c2cccc(F)c2)CC1)c1ccc(C(=O)Nc2ccccc2N)cc1 = 43
3) COc1cc2c(cc1O)C(C)Cc1cc3c(cc1N(C)CC2)OCO3 (stereo not given) = 14.8
4) Cc1nn(-c2ccc(Br)cc2)c(C)c1CC(=O)c1cc(O)ccc1O = 21.8
5) O=C1c2cccnc2C(=O)c2c1c(C(=O)OCCN1CCOCC1)c1ccccn21 = 0.767
6) CC(=O)OCC1OC(n2c(-c3ccccc3)c(C)c(C)c(C#N)c2=S)C(OC(C)=O)C(OC(C)=O)C1OC(C)=O (stereo not given) = 34.6
7) Oc1cc2c(cc1O)-c1[nH]ncc1CC2 = 44.6
8) CC(C)Oc1ccc(C(=O)N[C@H](CNC(=O)CN(C)C)Cc2ccc(-c3cn4cccc([C@H](C)O)c4n3)cc2)cc1Cl = 19.2
9) C[C@]12CCC(=O)C=C1CC[C@@H]1C2CC[C@]2(C)Nc3c(ncn3-c3ccc(F)cc3)CC12 (stereo not given in full) = 95.9

# next molecule below
Give its TGI value. Item: CCC(/C(=N\Nc1c(Cl)cc(Cl)cc1Cl)c1ccccc1)n1ccnc1C (stereo not given)
28.4

---

- System: HCC-2998 colon
- Procedure text: NCI tumour cell line growth inhibition, 48 h
Measured GI50 of individual entries

Here is how some compounds turned out for GI50.
1) CCCN1CCN(c2ccc3nc(-c4ccc5nc(-c6ccc(OCC)c(OCC)c6)[nH]c5c4)[nH]c3c2)CC1 = 0.533 µM
2) Nc1nc2c(c3cnccc13)C(c1cccc(Cl)c1)Cc1cnccc1-2 (stereo not given) = 1.29 µM
3) COC(=O)c1ccc(C2SCC(=O)N2NC(=O)C(O)c2ccccc2)cc1 (stereo not given) = > 100 µM
4) O=C([O-])c1ccccc1Nc1ccccc1[O-].[Ni+3].[OH3+].[OH3+].[OH3+] = > 100 µM

Give its GI50 value. Item: "O=C(CN1CCN(c2ccc(Cl)cc2)CC1)N1CCN(c2nnc(-c3ccccc3)c(-c3ccccc3)n2)CC1"
9.29 µM

Give its GI50 value. Item: "C=C(CN1CCN(c2cccc(F)c2)CC1)c1ccc(C(=O)Nc2ccccc2N)cc1"
2.98 µM

Give its GI50 value. Item: "C/C(=N\NC(=O)c1ccncc1)c1ccc(O)cc1O"
3.59 µM

Give its GI50 value. Item: "COc1ccc(CNc2nc(NCc3ccc(OC)cc3)c3n[nH]c(C(C)C)c3n2)cc1"
2.43 µM

Give its GI50 value. Item: "CC[C@]12CCCN3CC[C@]4(C(=C(C(=O)OC)C1)Nc1ccccc14)[C@@H]32"
14.6 µM

Give its GI50 value. Item: "COc1cc2c3c(n(CCCCl)c(=O)c2cc1OC)-c1ccc(C#N)cc1C3=O"
4.49 µM

---

- Tested on: LOX IMVI melanoma
- Procedure text: NCI tumour cell line growth inhibition, 48 h
Value type: TGI

Here is how some molecules turned out for TGI.
1) Oc1cc2ccccc2cc1-c1n[nH]c(=S)n1-c1ccc(Cl)cc1 = 50.2 µM
2) CC1CCC23COC(=O)C2C(O)CCC3C1(C)CC(O)c1ccoc1 (stereo not given) = > 100 µM
3) CCn1cnc2c(NC(C)=O)ncnc21 = > 100 µM

Give its TGI value. Item: "Nc1ccc(N)c2c1C(=O)c1c(N)ccc(N)c1C2=O"
> 31.6 µM

Give its TGI value. Item: Cc1ccc(NC(=O)c2nc(S(C)=O)oc2-c2ccc(F)cc2)cc1Nc1nccc(-c2cccnc2)n1 (stereo not given)
2.65 µM

Give its TGI value. Item: "Cc1nn(-c2ccc(Br)cc2)c(C)c1CC(=O)c1cc(O)ccc1O"
13.9 µM

Give its TGI value. Item: "C[C@@]1(N2C(=O)OC[C@@H]2c2ccccc2)C(=O)N([C@H](CC(=O)N2CCC(N3CCCCC3)CC2)C(=O)NCc2cccc(C(F)(F)F)c2)[C@@H]1/C=C/c1ccccc1"
3.5 µM

Give its TGI value. Item: O=C1OC(c2ccccc2)N/C1=C\c1ccc2c(c1)OCO2 (stereo not given)
> 100 µM

Give its TGI value. Item: "CC(C)CC(=O)NS(=O)(=O)c1ccccc1"
> 100 µM

Give its TGI value. Item: "CC(C)(O)[C@H](CCO)O[Si](c1ccccc1)(c1ccccc1)C(C)(C)C"
27.6 µM

Give its TGI value. Item: "CCCN1CCN(c2ccc3nc(-c4ccc5nc(-c6ccc(OCC)c(OCC)c6)[nH]c5c4)[nH]c3c2)CC1"
0.461 µM

Give its TGI value. Item: COc1cc(C2C(C#N)=C(N)Oc3cc(O)ccc32)cc(OC)c1OC (stereo not given)
> 100 µM

Give its TGI value. Item: O=C(O)C1OC(Oc2cc(O)c3c(=O)cc(-c4ccc(O)cc4)oc3c2)C(O)C(O)C1O (stereo not given)
> 100 µM

Give its TGI value. Item: CCCCCCCCCC(CCCC(O)CC(=O)O)OC1OC(COC2OC(C)C(O)C(O)C2O)C(O)C(O)C1OC1OC(CO)C(O)C(O)C1OC1OC(C)C(O)C(O)C1O (stereo not given)
> 40 µM

Give its TGI value. Item: "Cc1ccc(C(=O)NC(C)(C)C)cc1N=NN(C)C"
> 100 µM

Give its TGI value. Item: "COC(=O)[C@@H]1C[C@]2(CC=C(C)C)c3ccccc3N(S(=O)(=O)c3ccccc3)[C@@H]2N1C(=O)OC"
> 100 µM

Give its TGI value. Item: "CC(=O)OCc1cn(S(=O)(=O)c2ccc(C)cc2)cn1"
> 100 µM

Give its TGI value. Item: "COc1cc([C@@H]2c3cc4c(c(O)c3C[C@H]3COC(=O)[C@@H]32)OCO4)cc(OC)c1O"
> 200 µM

Give its TGI value. Item: COC(=O)CCC(=O)c1ccc2c(c1)CC1(C2)Cc2ccc3c(c2C1)CCCC3=O (stereo not given)
> 100 µM

Give its TGI value. Item: "O=[N+]([O-])c1ccc(-c2cn(-c3ccc(Cl)cc3)cn2)cc1"
> 100 µM

The reported numbers originate from PubChem BioAssay (NCI).
